Measured Target: Androgen receptor (Homo sapiens, UniProt P10275)
Sequence (P10275 whole entry): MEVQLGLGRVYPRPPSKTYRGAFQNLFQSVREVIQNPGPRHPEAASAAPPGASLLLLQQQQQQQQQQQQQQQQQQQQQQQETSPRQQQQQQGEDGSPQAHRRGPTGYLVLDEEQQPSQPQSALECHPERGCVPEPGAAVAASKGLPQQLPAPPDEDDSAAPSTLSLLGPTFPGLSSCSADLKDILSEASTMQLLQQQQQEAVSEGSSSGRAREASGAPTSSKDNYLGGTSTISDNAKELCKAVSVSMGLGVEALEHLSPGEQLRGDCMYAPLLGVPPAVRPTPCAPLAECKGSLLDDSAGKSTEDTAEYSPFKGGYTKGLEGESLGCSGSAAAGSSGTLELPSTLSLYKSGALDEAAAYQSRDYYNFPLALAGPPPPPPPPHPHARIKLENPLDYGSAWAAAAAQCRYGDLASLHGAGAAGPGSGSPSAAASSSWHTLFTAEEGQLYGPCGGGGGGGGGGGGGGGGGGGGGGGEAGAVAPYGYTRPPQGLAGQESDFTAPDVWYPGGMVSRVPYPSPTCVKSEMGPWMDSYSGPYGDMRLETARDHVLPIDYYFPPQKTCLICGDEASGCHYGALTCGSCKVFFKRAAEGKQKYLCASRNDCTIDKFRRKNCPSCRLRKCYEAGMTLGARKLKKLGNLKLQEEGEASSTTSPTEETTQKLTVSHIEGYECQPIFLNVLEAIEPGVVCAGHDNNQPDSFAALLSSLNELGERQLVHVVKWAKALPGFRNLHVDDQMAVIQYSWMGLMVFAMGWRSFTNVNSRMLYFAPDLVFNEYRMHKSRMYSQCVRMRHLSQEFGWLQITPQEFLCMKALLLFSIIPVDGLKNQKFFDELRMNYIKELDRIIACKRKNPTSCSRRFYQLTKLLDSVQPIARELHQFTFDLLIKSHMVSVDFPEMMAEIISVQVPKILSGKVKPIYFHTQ
What pEC50 was measured for each of the following?
Please report pEC50 as the negative decimal logarithm of the molar concentration, giving only the number.

Find the measured pEC50 of C[C@@H]1CC[C@H](CCl)N1c1ccc2[nH]c(=O)cc(C(F)(F)F)c2c1 and report it.
7.92

Give a short answer stating reported pEC50 for C[C@@H]1CC[C@H]([C@@H](O)C(F)(F)F)N1c1ccc2[nH]c(=O)cc(C(F)(F)F)c2c1 .
8.15

Quote pEC50 reported for C[C@@H]1CC[C@H]([C@H](O)C(F)(F)F)N1c1ccc2[nH]c(=O)cc(C(F)(F)F)c2c1 please.
8.08
